Molecular target: KPC-2 (Klebsiella pneumoniae, UniProt Q9F663)
Construct: made in house; host or cells: E. coli BL21(DE3)
Sequence (Q9F663 25-293, looked up): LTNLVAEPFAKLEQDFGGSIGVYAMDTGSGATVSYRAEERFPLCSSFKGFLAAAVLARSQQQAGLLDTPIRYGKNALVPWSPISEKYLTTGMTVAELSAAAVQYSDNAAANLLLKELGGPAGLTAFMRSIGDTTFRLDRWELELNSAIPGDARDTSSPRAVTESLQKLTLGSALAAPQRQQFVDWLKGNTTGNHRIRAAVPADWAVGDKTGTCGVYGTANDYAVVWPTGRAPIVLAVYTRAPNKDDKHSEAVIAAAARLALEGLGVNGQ
Test: β-lactamase enzyme inhibition assay, KPC-2 (imipenem substrate)
Assay type: biochemical
Details: Class A; imipenem substrate, 300 nm; read-out: KPC-2
Protocol: For SHV-5, Kpc-2, p99AmpC and OXA-1 β-lactamases, E. coli BL21(DE3) bacterial cells carrying expression plasmids (expressed as native untagged proteins) for the individual β-lactamases were grown in 1 L of Superbroth (Teknova Inc. Hollister, Calif.) supplemented with 100 μg/ml kanamycin selection and 1×5052 (0.5% glycerol, 0.05% glucose and 0.2% α-lactose) at 35° C. for 18-20 hours. […]
# maps each entry to its IC50

smiles-text | IC50
O=C(Cn1cc(CNCCCC(F)(F)F)nn1)N[C@H]1Cc2cccc(C(=O)O)c2OB1O | 0.1 to 1 µM
NCCCc1c(CN)nnn1CC(=O)N[C@H]1Cc2cccc(C(=O)O)c2OB1O | 0.1 to 1 µM
CCn1nnnc1CC(=O)N[C@H]1Cc2cccc(C(=O)O)c2OB1O | < 0.1 µM
N=CNCCn1nnnc1CC(=O)N[C@H]1Cc2cccc(C(=O)O)c2OB1O | < 0.1 µM
NCCOCc1cn(CC(=O)N[C@H]2Cc3cccc(C(=O)O)c3OB2O)nn1 | < 0.1 µM
NCCS(=O)(=O)NCc1cn(CC(=O)N[C@H]2Cc3cccc(C(=O)O)c3OB2O)nn1 | < 0.1 µM
NNC(=O)Cn1nnc(CC(=O)N[C@H]2Cc3cccc(C(=O)O)c3OB2O)n1 | < 0.1 µM
NCc1cn(C[C@H](N)C(=O)N[C@H]2Cc3cccc(C(=O)O)c3OB2O)nn1 | 0.1 to 1 µM
